# method notes: NCI Yeast Anticancer Drug Screen. Data for the rad50 strain (AID 155);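 note: 0% = growth of vehicle-only cultures of the same strain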
# experimental conditions: S. cerevisiae rad50 strain growth inhibition; at 5.0 µM (retest, dose inferred, filed as 0.5)
Compounds without any hit were thinned out: in the full panel of roughly 79,000, 15% have a hit. Calls of active or inactive are those of the source. Cut-off read from the data, not from the text of the source: active = growth inhibition above about 70%; inactive = the rest.
// allowed return values: active, inactive

Hi, sorry to bother you, what did the test record for `CCNc1cc(N)[n+](CC)c2n[nH]c(/N=C/c3cc(Cl)cc(Cl)c3O)c12` ?
inactive

Status in this test for `c1cc[c]([Sn]([S]c2cccc3cccnc23)([c]2ccccc2)[c]2ccccc2)cc1` ?
active

Lab log entry: `CC(C)OC(=O)c1ccc(NC(=O)CCl)cc1` — outcome as called in the assay?
inactive

What did this assay record as the result for `Oc1ccc2ccccc2c1/C=N\Sc1ccccc1` ?
inactive

Any idea what this test logged for `CCn1c2ccc([N+](=O)[O-])cc2c2c([N+](=O)[O-])c(-n3cccc3)ccc21` ?
inactive

----------
# method notes: NCI Yeast Anticancer Drug Screen. Data for the cln2 rad14 strain (AID 165);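 note: 0% = growth equal to vehicle treated cultures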
# experimental conditions: S. cerevisiae cln2 rad14 strain, at 5.0 µM (retest, dose inferred, filed as 0.5)
The panel holds about 79,000 compounds, 15% with a hit somewhere; the sample as a whole holds those more often. Active and inactive are the calls of the source. Rule as the data show it: active = growth inhibition above about 70%; inactive = the rest.
Write down the outcome that applies. Available outcomes: 1 for active, -1 for inactive

Recorded call for CC12CC(Sc3ccccc3N1)c1ccccc1O2 (configuration not stated) ?
-1

For this compound, state the assay outcome: `Brc1cccc[n+]1Cc1cc2ccccc2c2ccccc12`
-1

Hi team, can someone confirm the assay call for `CCOC(=O)CCC(=O)Oc1ccc2c(c1OC(=O)CCC(=O)OCC)C(=O)c1ccccc1C2=O` ?
-1

Hi team, can someone confirm the assay call for `N#Cc1ccc(OC(=O)Nc2c(Cl)cccc2Cl)cc1` ?
-1

Record lookup: outcome of this test for O=C1C2C3C=CC(C3)C2C(=NS(=O)(=O)c2ccccc2)C2C3C=CC(C3)C12 (configuration not stated) ?
-1

Any idea what this test logged for `NNc1ccc(Br)cc1` ?
-1

What is the recorded call for this compound in the test? NC(=O)C1C(=O)c2cccc3c2C1(Br)C(Br)CCC3 (configuration not stated)
-1

Can you look up the reported call for `CN(C)CCCNc1c(C#N)[n+]([O-])c2cc(Cl)ccc2[n+]1[O-]` for me?
1

Hi team, can someone confirm the assay call for `CC1=NOC(=O)/C1=C/C=C/c1ccccc1` ?
-1

Recorded test call requested for `CCCC(=O)c1ccc(OC)cc1`
-1

# fetch the recorded call for `CCCc1cc2c(cc1CS(=O)(=O)CC)OCO2` here
-1

Lab log entry: `O=[N+]([O-])c1ccc(N/N=C/c2cccnc2)cc1` — outcome as called in the assay?
-1

Test call, this compound: Cc1cc[n+](C2CCC3(C)C(=CCC4C3CCC3(C)C(C(C)CCCC(C)C)CCC43)C2)cc1 (configuration not stated)
-1

// return assay outcome for `CN(C)CCNc1ccc2nnn3c4ccc(O)cc4c(=O)c1c23`
-1

Could you please tell me the result logged for `COC(=O)[C@@H]1c2cc3c(c(O)c2[C@@H](OC)C[C@@]1(C)O)C(=O)c1c(O)cc2c(c1C3=O)OC1O[C@@]2(C)[C@H](O)[C@@H](N(C)C)[C@@H]1O` in this assay?
-1

Write down the call the test reported for this compound. Item: CCCNCCCC(C)Nc1cc(OC)cc2c(C)ccnc12 (configuration not stated)
-1

Please let me know the test result on file for `Cc1cc(C)c(N2C(=O)C=CC2=O)c(C)c1` .
1

Short answer needed: outcome of this test for CCCCCCCCCCCCCCCCNC(C)c1ccccc1 (configuration not stated) ?
-1

In this assay, the call recorded for `CC(=O)Oc1cc2c(=O)oc3c(OC(C)=O)c(OC(C)=O)c(OC(C)=O)c4c(=O)oc(c1OC(C)=O)c2c34` was what?
-1

Kindly provide the recorded test outcome for the following compound: C=C1C[C@H](O)[C@H]2C(C[Se]c3ccccc3)C(=O)O[C@@H]2[C@H]2[C@H](C)C(O)C[C@@H]12 (some centres not stated)
-1

Give the logged outcome of this assay for the following compound: `CCN1C(Cl)=NS(=O)(=O)c2ccccc21`
-1

Could you check what this test reported for `Cc1ccc(S(=O)(=O)N/N=C/c2cc(I)cc([N+](=O)[O-])c2O)cc1` ?
-1

----------
Kindly state growth inhibition for each of the entries shown.
# method notes: NCI Yeast Anticancer Drug Screen. Data for the sgs1 mgt1 strain (AID 161);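 note: 0% = growth of cultures given vehicle only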
# experimental conditions: S. cerevisiae sgs1 mgt1 strain, at 5.0 µM (retest, dose inferred, filed as 0.5), hits give high values
The panel holds about 79,000 compounds, 15% with a hit somewhere; the sample as a whole holds those more often.
Use % as the unit, but write only the number.

Would you mind telling me what growth inhibition value was observed for `CCc1c(C)[nH]c2c([N+](=O)[O-])cccc12` ?
-3

// returns reported growth inhibition for input `O=C1c2cc([N+](=O)[O-])ccc2-c2cc([N+](=O)[O-])ccc21`
73

Bench note: what growth inhibition did CC(=O)OC(C)C1C2=C(C(=O)CC1(C)O)C(=O)c1c(ccc(-c3ccc4c(c3O)C(=O)C3=C(C4=O)C(C(C)OC(C)=O)C(C)(O)CC3=O)c1O)C2=O (configuration not stated) show?
44

What does the record list as growth inhibition for `O=C(CCc1c[nH]c2ccccc12)c1ccccc1O` ?
5

Entry under review: `CCCCCCCCCCCCCCCCCC[n+]1cccc(C(=O)c2ccccc2)c1` . Reported growth inhibition?
97

// returns reported growth inhibition for input `CCN(CC)C(C)(C)C(=O)/C=C/c1ccc(Cl)c(Cl)c1`
6

Consider the compound shown here: `CC(C)(C)CC(C)(C)c1ccc(O)c(Cl)c1` What is its recorded growth inhibition?
-2

Item under review: CC(NC(=O)OCc1ccccc1)C(=O)NC(Cc1ccccc1)C(=O)OCc1ccccc1 (configuration not stated) . Reported growth inhibition?
-2

// returns reported growth inhibition for input `C(/C=C/CC=Nc1ccccc1)=Nc1ccccc1`
0

# get_value(readout='growth inhibition', item= `C=CC(=O)Oc1ccccc1/C=C/C(=O)CCCCCC` )
14

So what does the record say about growth inhibition for `NNc1ccccc1F` ?
-42

Entry CC(CN(C)C)C(/C=C/c1ccccc1)=N\NC(=O)c1ccccc1 (configuration not stated) has what growth inhibition?
-4

----------
Please provide measured growth inhibition for the entries that follow.
# method notes: NCI Yeast Anticancer Drug Screen. Data for the rad50 strain (AID 155);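 note: 0% = growth of vehicle-only cultures of the same strain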
# experimental conditions: S. cerevisiae rad50 strain growth inhibition; at 5.0 µM (retest, dose inferred, filed as 0.5); hits give high values
About 79,000 compounds went through this panel and 15% of them were active in at least one assay; those are over-represented in the sample as a whole. The source made the active and inactive calls. Cut-off read from the data, not from the text of the source: active = growth inhibition above about 70%; inactive = the rest.

Quick one: growth inhibition for `Nc1cc(Cl)c(I)cc1Cl` ?
7% (inactive)

I am curious: what growth inhibition value has been reported for `Cn1cc(NC(=O)c2cc(NC(=O)CCCCCCC(=O)Nc3cc(C(=O)Nc4cc(C(=O)NCCC(=N)N)n(C)c4)n(C)c3)cn2C)cc1C(=O)NCCC(=N)N` ?
87% (active)

Entry `C=CS(=O)(=O)c1ccc(C)cc1` has what growth inhibition?
0% (inactive)

Reported growth inhibition, compound `CC(=O)n1c(=S)n(C(C)=O)c2ccccc21` : ____
2% (inactive)

Tell me the measured growth inhibition of `CCCN(CCC)c1ccc(/C=C/c2ccnc3ccccc23)cc1` , please.
9% (inactive)

I have this compound here, `CC(=O)NCCN(C)C` , and I need its recorded growth inhibition.
2% (inactive)

# growth inhibition lookup, item `Cc1nn(C(=S)S)c(C)c1N=Nc1ccc(Br)cc1`
14% (inactive)

Tell me the measured growth inhibition of `CCCCCCCCC(N)CCCCCCCC` , please.
99% (active)

growth inhibition for `O=C1Nc2ccc([N+](=O)[O-])c3c([N+](=O)[O-])ccc1c23` ?
4% (inactive)

Which growth inhibition value belongs to `O=C(CC(O)(CC(=O)OCc1ccccc1)C(=O)OCc1ccccc1)OCc1ccccc1` ?
-3% (inactive)

State the recorded growth inhibition for this entry: `CN(C)CC(=O)OCC[N+](C)(C)C`
-3% (inactive)

// returns reported growth inhibition for input O=C(OC12CCCCC1CCCC2)c1ccc([N+](=O)[O-])cc1 (centres undefined)
28% (inactive)

Which growth inhibition value belongs to `Cn1c2c(c3ccccc31)CCN(CCN1CCN(c3ccccc3)CC1)C2=O` ?
30% (inactive)

I would be grateful if you could share the reported growth inhibition for `NC(=S)N1N=C2c3ccccc3CC[C@H]2[C@@H]1c1cccs1` .
-52% (inactive)

Item under review: `Cc1cc(O)c(C(=O)/C=C/c2ccnc3ccccc23)c(=O)o1` . Reported growth inhibition?
-7% (inactive)

I would be grateful if you could share the reported growth inhibition for CCc1cc(-c2ccco2)c(C#N)c(=S)n1C1OC(COC(C)=O)C(OC(C)=O)C(OC(C)=O)C1OC(C)=O (centres undefined) .
-2% (inactive)

Dear colleague, I am looking for the recorded growth inhibition of the following compound: `c1ccc([P+](CCCCCC[P+](c2ccccc2)(c2ccccc2)c2ccccc2)(c2ccccc2)c2ccccc2)cc1`
61% (inactive)

Value lookup for growth inhibition; key = `O=C(NO)C(=O)Nc1cc(Cl)ccc1Cl`
7% (inactive)

Fill in the blank: the reported growth inhibition of OCC(O)C(O)C(O)C(O)c1cnn(-c2ccccc2)n1 (centres undefined) is ____.
3% (inactive)

Recorded growth inhibition for Cc1ccc(C2CC(c3cccc([N+](=O)[O-])c3)=Nc3ccccc3S2)cc1 (centres undefined) , please?
0% (inactive)

What value of growth inhibition has been reported for the following compound? CCCCCCCCCCCC1=NCC(C)N1 (centres undefined)
-39% (inactive)

Item under review: `CCO[Si](CC)(OCC)OCC` . Reported growth inhibition?
-3% (inactive)

If you can, please state the reported growth inhibition value of `COc1cc(CCN=Cc2cc(Cl)cc(Cl)c2O)c([N+](=O)[O-])cc1OC` .
60% (inactive)

growth inhibition lookup needed for `O=S(=O)(N/N=C/c1ccc(Cl)cc1Cl)c1ccccc1` , thanks.
-20% (inactive)
